System: HSkMC (human skeletal muscle cells)
assay_explanation: cytotoxicity call (relative viability < 0.9)
applied_conditions: 10 µM
In all, about 39,000 compounds went through this assay and about 1,500 (3.8%) were called active. For the sample, actives were picked, then their nearest neighbours and some compounds at random.
Labels: true (active), false (inactive)

| substance_smiles | class |
| --- | --- |
| COc1ccc(S(=O)(=O)N(C)C[C@@H]2Oc3c(NC(=O)c4ccncc4)cccc3C(=O)N([C@H](C)CO)C[C@@H]2C)cc1 | false |
| COc1ccc(S(=O)(=O)Nc2ccc3c(c2)C(=O)N([C@H](C)CO)C[C@H](C)[C@@H](CN(C)Cc2ccc(-c4ccccc4)cc2)O3)cc1 | false |
| COc1ccc(S(=O)(=O)Nc2ccc3c(c2)C(=O)N([C@@H](C)CO)C[C@@H](C)[C@H](CN(C)Cc2ccc(-c4ccccc4)cc2)O3)cc1 | true |
| COc1ccc(S(=O)(=O)Nc2ccc3c(c2)C(=O)N([C@H](C)CO)C[C@H](C)[C@H](CN(C)Cc2ccc(-c4ccccc4)cc2)O3)cc1 | false |
| C[C@@H]1CCCCO[C@@H](CN(C)S(=O)(=O)c2ccc(Cl)cc2)[C@@H](C)CN([C@@H](C)CO)C(=O)c2cc(NS(=O)(=O)c3ccc(F)cc3)ccc2O1 | false |
| COc1ccc(S(=O)(=O)Nc2ccc3c(c2)C(=O)N([C@H](C)CO)C[C@@H](C)[C@H](CN(C)Cc2ccc(-c4ccccc4)cc2)O3)cc1 | false |
